- tested.on: Fibroblast growth factor 10 (Homo sapiens)
- assay.overview: compounds binding fibroblast growth factor 10 – biochemical, small-molecule microarray, 635 nm fluorescence, primary screen (AID 1102)
- assay.setup: FGF10 binding, fluorescence 635 nm, higher = more signal
Entries and their composite z-score
readout.kind: composite z-score

> print(dat)
                                   molecule  result.number
1  CC1=C2[C@@H](CCc3ccccc3)OB(O)C[C@@H]2[C@@H]2C(=O)N(C)C(=O)[C@@H]2C1          0.985
2  O=C1C2C=CC(C(O)C3CC=CCC3)N(Nc3ccccc3)C2C(=O)N1c1ccccc1 (stereo not given)          0.154
3  NCCCCCNC(=O)[C@@H]1C[C@@H]2C(=O)N[C@@H](CCCCN)C(=O)N2[C@@H]1c1ccc(O)cc1           1.41
4  CCC1=C2CN(Cc3ccccc3)[C@@H](C(=O)Cc3ccccc3)C2C=CCC1 (stereo not given in full)           0.57
5  CC(C)C(CO)N1C(=O)[C@@H]2[C@H]3C(=O)OCC=C[C@H]3OC23C=CCN(c2ccc(Cl)cc2)C(=O)[C@@H]13 (stereo not given in full)         -0.739

====

Entries and their z-score
- assay.overview: plasmodial surface anion channel blockers, osmotic lysis – cell-based, P. falciparum Indochina, OD700, 1 h, primary screen (AID 1154)
- assay.setup: P. falciparum Indochina infected RBC osmotic lysis, higher = more signal, called active from +8 up or from −8 down
readout.kind: z-score

> print(dat)
                    structure.smiles.string  readout.kind  result.number
1  CCCCNC(=O)c1ccc(C#CC(C)(C)C)c(OC(C)=O)c1       z-score           4.63
2  [N-]=[N+]=Nc1ccccc1C[C@]1(C(=O)N2CCOCC2)COC(c2ccc(OCCCO)cc2)=N1       z-score           24.6
3  [N-]=[N+]=Nc1ccccc1[C@H]1OC(c2ccc(OCCCO)cc2)=N[C@@]1(Cc1ccccc1)C(=O)NCCN1CCOCC1       z-score           33.5
4  CC(=O)NCCCC[C@@H]1NC(=O)[C@@H]2C[C@H](C(=O)NCCCCCN)[C@H](c3cccc(OCCO)c3)N2C1=O       z-score           2.03
5  CCOC(=O)C1=C[C@@H](C(C)(C)C)N(S(=O)(=O)c2ccc(C)cc2)[C@H]1c1cccc2ccccc12       z-score          0.564

====

- assay.overview: small molecules captured by biotinylated probe aFSTL3 – biochemical, small-molecule microarray, fluorescence 635/667, stem cell growth factor project, primary screen (AID 1064);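 also: measures binding of the biotinylated anti-FSTL3 antibody to printed compounds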
- assay.setup: higher = more signal
Measured composite z-score determines class: zone 1: < -0.2; zone 2: ≥ -0.2 and < 0.2; zone 3: ≥ 0.2

compound	label
[N-]=[N+]=Nc1ccccc1[C@@H]1OC(c2ccc(OCCCO)cc2)=N[C@]1(Cc1ccccc1)C(=O)N1CCCCC1	zone 2
C=C(COC)/C(=C/C[C@H](OC(=O)c1ccncc1)c1ccc(CO)o1)c1cnc2ccccc2c1	zone 2
[N-]=[N+]=Nc1ccccc1C[C@]1(C(=O)O)COC(c2ccc(OCCCO)cc2)=N1	zone 3
COc1cc(OC)c(C(O)C2C=CC3C(=O)N(Cc4ccccc4)C(=O)C3N2n2cnnc2)cc1Br (configuration not stated)	zone 1
COC(=O)[C@@]1(Cc2ccc(F)cc2)[C@H]2c3cc(C(=O)N(C)C)n(Cc4ccc(OC(F)(F)F)cc4)c3C[C@H]2CN1C(=O)c1ccccc1	zone 1
COC(=O)[C@@]1(Cc2ccc(F)cc2)[C@H]2c3cc(C(=O)N4CCCC4)n(Cc4ccc(C)c(F)c4F)c3C[C@H]2CN1C(=O)c1ccccc1	zone 3
C=CCN1C(=O)[C@]2(CCC(=O)OC(C)(C)C)N=C(c3ccc(OCCCO)cc3)O[C@@H]2c2ccccc21	zone 3
CCCC[C@@H](O)C1=C(COC)C[C@H]2C(=O)N(C)C(=O)[C@H]2[C@H]1CO	zone 1
CCOC(=O)C[C@H]1[C@H](OC(=O)c2ccc(C(=O)c3ccccc3)cc2)[C@@H](NC(=O)CC(C)C)c2cc(OCCCO)ccc2N1C(=O)c1ccccc1	zone 1
NCCCCCCNC(=O)[C@@H]1C[C@@H]2C(=O)N[C@@H](CCCCN)C(=O)N2[C@@H]1c1ccc(O)cc1	zone 3
O[C@@H](Cc1ccccc1)[C@@H](/C=C/C1CC1)N(CC#Cc1ccccc1)Cc1ccccc1Br	zone 3
CC(C)[Si](C#CCCCC#N)(O[C@H](c1ccccc1)c1cn(Cc2ccccc2)nn1)C(C)C	zone 1
CO[C@H]1O[C@H](CO)[C@@H](OC(=O)Nc2ccc(Br)cc2)[C@@H]2OC(=O)[C@@H](Cc3ccccc3)C/C=C/C[C@H](Cc3ccccc3)C(=O)O[C@@H]12	zone 2
Cc1ccc(N2C(=O)c3ccccc3[C@@H](C(=O)NCCCN(C)C)[C@@H]2c2ccc(CO)cc2)nc1	zone 3
COc1cc2c(cc1O)C(C1CC1)N(Cc1cccc(OC(F)(F)F)c1)CC2 (configuration not stated)	zone 2
Cc1ccc(F)cc1S(=O)(=O)N[C@@H]1CCN(Cc2ccc(Br)cc2)C1	zone 1
COc1cc2c(cc1O)C(c1ccc(CN3CCCC3)cc1)N(Cc1cc3c(cc1Br)OCO3)CC2 (configuration not stated)	zone 1
COCCOC(=O)N1C(=O)[C@@]2(c3cc(C#CC4=CCCCC4)ccc31)[C@H](c1ccccc1OCCO)N1[C@H](c3ccccc3)[C@H](c3ccccc3)OC(=O)[C@H]1[C@@H]2C(=O)NC[C@H](O)c1ccccc1	zone 1
COCCOC(=O)N1C(=O)[C@@]2(c3ccccc31)[C@H](C(=O)NC[C@H](O)c1ccccc1)[C@H]1C(=O)O[C@H](c3ccccc3)[C@H](c3ccccc3)N1[C@@H]2c1ccc(O)cc1	zone 2
C=C(/C(=C/C[C@H](OC(=O)c1ccncc1)c1ccc(CO)o1)c1cnc2ccccc2c1)C(C)C	zone 1
CC(C)=C1C(=O)C(c2ccccc2)=C2CN3C(=O)N(CCc4ccccc4)C(=O)[C@]3(Cc3ccc(C(F)(F)F)cc3)[C@H]21	zone 3
O=C(NCc1ccc(F)cc1)[C@H]1C[C@H]2C(=O)NCC(=O)N2[C@H]1c1ccc(O)cc1	zone 3

====

- tested.on: Torsin-1A (Homo sapiens) (UniProt O14656)
- Sequence (O14656 whole entry, looked up): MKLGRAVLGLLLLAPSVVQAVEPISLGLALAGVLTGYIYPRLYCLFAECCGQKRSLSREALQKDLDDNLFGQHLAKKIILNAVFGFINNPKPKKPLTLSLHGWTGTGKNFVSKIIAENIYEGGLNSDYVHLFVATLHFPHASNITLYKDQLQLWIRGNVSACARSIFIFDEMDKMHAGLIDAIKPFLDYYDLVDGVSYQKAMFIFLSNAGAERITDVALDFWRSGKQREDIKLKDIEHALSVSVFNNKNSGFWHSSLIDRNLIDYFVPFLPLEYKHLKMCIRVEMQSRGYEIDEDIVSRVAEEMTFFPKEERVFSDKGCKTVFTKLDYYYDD
- assay.overview: torsin A mutant lysate binding on microarrays – cell lysate, small-molecule microarray, COS7 lysate, 635/667 nm fluorescence, primary screen (AID 1150);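 also: score pools 667 nm emission and signal to noise measuring lysate protein binding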
- assay.setup: COS7 hTOR1A mutant lysate, 635 nm fluorescence, higher = more signal
Entries and their composite z-score
readout.kind: composite z-score

compound	result
COCCOC(=O)N1C(=O)[C@@]2(c3cc(C#CC4(O)CCCCCC4)ccc31)[C@H](C(=O)N1CCc3cc(OC)c(OC)cc3C1)[C@H]1C(=O)O[C@H](c3ccccc3)[C@H](c3ccccc3)N1[C@@H]2c1ccc(OCCO)cc1	0.362
O=C1NC(=O)C2C1C=CC(C(O)c1ccco1)N2Nc1ccc(Cl)cc1Cl (stereo not drawn)	0.672
O=C(c1ccccc1)N1C(=O)[C@]2(Cc3ccccc31)N=C(c1ccc(OCCCO)cc1)O[C@@H]2c1ccccc1	0.562
CCCCCN1CC=CC23O[C@@H]4C=CCCOC(=O)C4[C@H]2C(=O)N(CCCCCCO)[C@@H]3C1=O (stereo partly drawn)	2.1
O=C1[C@H]2C=C(I)[C@H](C[C@@H]2OCCOCCO)[C@@]12CO2	-0.0946
CCCC=C(CCC)[C@@H](NS(=O)(=O)CC12CCC(CC1=O)C2(C)C)c1ccc(C(=O)OC)cc1 (stereo partly drawn)	0.792
COCCOC(=O)N1C(=O)[C@@]2(c3cc(C#CCNC(N)=O)ccc31)[C@H](C(N)=O)[C@H]1C(=O)O[C@H](c3ccccc3)[C@H](c3ccccc3)N1[C@@H]2c1ccccc1OCCO	0.25
CCCCCC1=C2CNC(C)(C(=O)OC)C=C2C(C)C1=O (stereo not drawn)	-0.38
CC1CC/C=C\[C@H]2OC34C=CCN(C(C)C)C(=O)[C@H]3N(CCO)C(=O)[C@@H]4C2C(=O)O1 (stereo partly drawn)	-1.17
C=C(/C(=C/C[C@H](OC(C)=O)c1ccc(CO)o1)c1cnc2ccccc2c1)C(C)C	0.269
CCOC(=O)C[C@H]1[C@H](OC(=O)c2cc3ccccc3oc2=O)[C@@H](NC(=O)c2ccccc2)c2cc(OCCCO)ccc2N1C(=O)c1ccccc1	0.347
COC(=O)[C@@]1(Cc2ccccc2)[C@H]2c3cc(C(=O)N4CCCC4)n(CCc4ccccn4)c3C[C@H]2CN1C(=O)c1ccccc1	1.4
CN(C)C(=O)[C@]1(Cc2ccccc2CN=[N+]=[N-])N=C(c2ccc(OCCCO)cc2)O[C@@H]1c1ccccc1	0.729
CCOC(=O)C[C@H]1[C@H](OC(=O)c2ccc(C(=O)c3ccccc3)cc2)[C@@H](NC(=O)c2ccc(-c3ccccc3)cc2)c2cc(OCCCO)ccc2N1C(=O)Cc1ccc(OC)cc1	0.022
Cc1ccc(S[C@]2(C(=O)NC(C)C)CC(=O)N(Cc3cc(C(F)(F)F)cc(C(F)(F)F)c3)[C@@H]2c2ccc(CO)cc2)cc1	-1.78
C=C(COC)/C(=C/C[C@H](OC(=O)c1ccncc1)c1ccc(CO)o1)c1cnc2ccccc2c1	0.732
COC(=O)[C@@]1(Cc2ccc(OC)cc2)[C@H]2c3cc(C(=O)N(C)C)n(Cc4ccc(C)o4)c3C[C@H]2CN1C(=O)c1ccccc1	0.567
COC(=O)C1=CC(CCCO)=CC(c2cccs2)N(Cc2cccc(OC(F)(F)F)c2)C=C1C(=O)OC (stereo not drawn)	1.56
CCCC[C@@H](O)C1=C(COC)C[C@H]2C(=O)N(C)C(=O)[C@H]2[C@H]1CO	0.227
C=C[C@H]1C(C(=O)OCC)=CC[C@@H](c2ccccc2)N1S(=O)(=O)c1ccc(C)cc1	0.508
[N-]=[N+]=Nc1ccccc1C[C@]1(C(=O)NCC(O)CO)COC(c2ccc(OCCCO)cc2)=N1 (stereo partly drawn)	1.72
O[C@@H](Cc1ccccc1)[C@@H](/C=C/C1CC1)N(CC#Cc1ccccc1)Cc1ccccc1Br	-0.744
CCOC(=O)C[C@H]1[C@H](OC(=O)c2ccc(C(=O)c3ccccc3)cc2)[C@@H](NC(=O)c2ccc3ccccc3n2)c2cc(OCCCO)ccc2N1C(=O)Cc1ccc(OC)cc1	0.292
